Tested system: FLT3 cytoplasmic domain (GST fused protein) (Homo sapiens (Human))
Assay name: Biochemical assay for inhibitors of FLT3 kinase activity
Run parameters: 2 nM pre activated enzyme, 254 microM ATP, 60 minutes at r.t.
Experimental: FLT3 cytoplasmic domain (aa 564-993end of the 993 aminoacid long full length sequence, accession number P36888 of UniProtKB/Swiss-Prot. database) was amplified by PCR starting from a testis cDNA library and then cloned into pVL vector for expression in insect cells through the baculovirus system. […] The supernatant was subsequently withdrawn and transferred into a counting plate that was then evaluated by β-counting. • ii. […]
pIC50: −log10 of the molar value. Where a name gives a salt, the structure may show the parent alone.
Reported pIC50 values follow for various compounds
Assay metric: pIC50

Compound: CN1CCN(c2ccc(C(=O)Nc3n[nH]c4cc(OC/C=C/c5ccccc5)ccc34)cc2)CC1
Assay metric: pIC50
Value qualifier: =
Recorded result: 7.21
--
Compound: O=C(Nc1n[nH]c2cc(OCCOCc3ccccc3)ccc12)c1ccc(NCCN2CCOCC2)cc1 [Cpd. 25, hydrochloride]
Assay metric: pIC50
Value qualifier: =
Recorded result: 7.13
--
Compound: O=C(Nc1n[nH]c2cc(OCCOCc3ccccc3)ccc12)c1ccc(N2CCOCC2)cc1
Assay metric: pIC50
Value qualifier: =
Recorded result: 6.79
--
Compound: CN1CCN(c2ccc(C(=O)Nc3n[nH]c4cc(OCc5ccccc5)ccc34)cc2)CC1
Assay metric: pIC50
Value qualifier: =
Recorded result: 6.37
--
Compound: CN1CCN(c2ccc(C(=O)Nc3n[nH]c4cc(OCCOc5ccccc5)ccc34)cc2)CC1
Assay metric: pIC50
Value qualifier: >
Recorded result: 7.30
--
Compound: C[N+]1([O-])CCN(c2ccc(C(=O)Nc3n[nH]c4cc(OCCOCc5ccc(C(F)(F)F)cc5)ccc34)cc2)CC1 [Cpd. 42, hydrochloride]
Assay metric: pIC50
Value qualifier: >
Recorded result: 7.30
--
Compound: CN1CCN(c2ccc(C(=O)Nc3n[nH]c4cc(OCc5cccc(Oc6ccccc6)c5)ccc34)cc2)CC1
Assay metric: pIC50
Value qualifier: =
Recorded result: 5.93

###

Reported pIC50 values follow for various compounds
Tested system: FLT3 cytoplasmic domain (GST fused protein) (Homo sapiens (Human), UniProt P36888)
Sequence (P36888 564-993): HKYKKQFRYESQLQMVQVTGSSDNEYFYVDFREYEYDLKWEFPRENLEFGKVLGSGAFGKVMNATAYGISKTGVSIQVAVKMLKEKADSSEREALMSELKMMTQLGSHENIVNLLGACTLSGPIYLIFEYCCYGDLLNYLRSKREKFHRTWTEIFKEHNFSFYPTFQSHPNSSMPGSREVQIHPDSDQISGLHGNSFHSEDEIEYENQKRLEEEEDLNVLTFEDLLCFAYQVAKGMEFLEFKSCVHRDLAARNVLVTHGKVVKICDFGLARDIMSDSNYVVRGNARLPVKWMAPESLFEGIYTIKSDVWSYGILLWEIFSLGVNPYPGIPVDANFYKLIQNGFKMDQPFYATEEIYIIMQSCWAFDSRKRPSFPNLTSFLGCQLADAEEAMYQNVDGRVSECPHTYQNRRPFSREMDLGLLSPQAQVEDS
Assay name: Biochemical assay for inhibitors of FLT3 kinase activity
Run parameters: 2 nM pre activated enzyme, 254 microM ATP, 60 minutes at r.t.
pIC50: −log10 of the molar value.

Compound: C[N+]1([O-])CCN(c2ccc(C(=O)Nc3n[nH]c4cc(OCCOCc5ccccc5)ccc34)cc2)CC1
Value qualifier: >
pIC50: 7.30

Compound: CN(c1ccc(C(=O)Nc2n[nH]c3cc(OCCOCc4ccccc4)ccc23)cc1)C1CC[N+](C)([O-])CC1 (centres unmarked)
Value qualifier: =
pIC50: 7.28

Compound: CN1CCN(c2ccc(C(=O)Nc3n[nH]c4cc(Oc5cccc(OCc6ccccc6)c5)ccc34)cc2)CC1
Value qualifier: =
pIC50: 5.82

Compound: CN1CCC(Oc2ccc(C(=O)Nc3n[nH]c4cc(OCCOCc5ccccc5)ccc34)cc2)CC1
Value qualifier: =
pIC50: 7.25

Compound: CN1CCN(c2ccc(C(=O)Nc3n[nH]c4cc(OCCOCc5ccc(F)cc5)ccc34)cc2)CC1
Value qualifier: >
pIC50: 7.30

Compound: CN1CCN(c2ccc(C(=O)Nc3n[nH]c4cc(OCCOCc5cccc(C(F)(F)F)c5)ccc34)cc2)CC1
Value qualifier: =
pIC50: 7.25

Compound: CN1CCN(c2ccc(C(=O)Nc3n[nH]c4cc(Oc5cccc(F)c5)ccc34)cc2)CC1
Value qualifier: =
pIC50: 6.19

Compound: CN1CCC(Nc2ccc(C(=O)Nc3n[nH]c4cc(OCCOCc5ccccc5)ccc34)cc2)CC1
Value qualifier: >
pIC50: 7.30

Just for reference, patent US9408850B2 is where these values come from.
